assayInfo: MTT cytotoxicity, BJ-1
runParameters: human, BJ-1 normal fibroblast cells
measuredProperty: viability at 48 h, 125 μg/mL (%)
Field format: number, assumed %, no unit text.

Task: Return value of viability at 48 h, 125 μg/mL for input Cc1nn(-c2ccccc2)c(Cl)c1C=NN=C1C(=O)Nc2ccccc21 , no commentary.
Result: 62.7

====

assayInfo: MTT cytotoxicity, BJ-1
runParameters: human, BJ-1 normal fibroblast cells
measuredProperty: viability at 48 h, 500 μg/mL (%)
State the answer as a number, implicitly in %.

Task: Dear colleague, please send me the reported viability at 48 h, 500 μg/mL for Cc1nn(-c2ccccc2)c(Cl)c1C=NN=C1C(=O)Nc2ccccc21 when you can.
Result: 19.1

====

assayInfo: MTT cytotoxicity, BJ-1
runParameters: human, BJ-1 normal fibroblast cells
measuredProperty: viability at 48 h, 6.25 μg/mL (%)
I only need the number, in %, no unit after it.

Task: Item COc1cccc2c1C(=O)c1c(O)c3c(c(O)c1C2=O)C[C@@](O)(C(=O)CO)C[C@@H]3O[C@H]1C[C@H](N)[C@H](O)[C@H](C)O1 [Doxorubicin, reference compound] : provide viability at 48 h, 6.25 μg/mL
Result: 87.4

====

measuredOn: acetylcholinesterase (AChE) (Homo sapiens)
Sequence (P22303 32-614, species assumed): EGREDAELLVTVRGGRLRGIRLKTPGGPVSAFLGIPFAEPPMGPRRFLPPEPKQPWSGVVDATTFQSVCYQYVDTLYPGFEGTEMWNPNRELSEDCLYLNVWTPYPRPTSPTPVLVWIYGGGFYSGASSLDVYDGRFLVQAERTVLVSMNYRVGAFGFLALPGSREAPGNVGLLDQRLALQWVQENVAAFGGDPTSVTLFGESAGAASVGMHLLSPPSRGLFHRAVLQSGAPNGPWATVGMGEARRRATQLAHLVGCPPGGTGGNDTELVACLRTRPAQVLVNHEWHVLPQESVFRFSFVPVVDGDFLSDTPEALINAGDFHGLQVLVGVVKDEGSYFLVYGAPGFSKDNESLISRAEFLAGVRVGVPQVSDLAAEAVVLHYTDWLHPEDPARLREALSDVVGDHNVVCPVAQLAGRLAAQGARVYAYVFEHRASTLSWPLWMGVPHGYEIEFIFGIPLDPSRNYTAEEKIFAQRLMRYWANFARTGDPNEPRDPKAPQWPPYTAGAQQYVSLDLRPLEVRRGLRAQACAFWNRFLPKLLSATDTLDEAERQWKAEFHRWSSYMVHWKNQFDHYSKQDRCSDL
measuredProperty: IC50 (µM)
// units = µM; emit number, no label

Task: Answer with the recorded IC50 for the compound listed here: Cc1nn(-c2ccccc2)c(Cl)c1C=NN=C1C(=O)Nc2ccccc21 [SB]
Result: 19.2

====

assayInfo: MTT cytotoxicity, BJ-1
runParameters: human, BJ-1 normal fibroblast cells
measuredProperty: viability at 48 h, 62.5 μg/mL (%)
Your answer is read as %, so omit the unit and give the number.

Task: Supply reported viability at 48 h, 62.5 μg/mL belonging to this compound: Cc1nn(-c2ccccc2)c(Cl)c1C=NN=C1C(=O)Nc2ccccc21 [SB]
Result: 80.9

====

measuredOn: COX-1 (Ovis aries)
Sequence (P05979 25-600): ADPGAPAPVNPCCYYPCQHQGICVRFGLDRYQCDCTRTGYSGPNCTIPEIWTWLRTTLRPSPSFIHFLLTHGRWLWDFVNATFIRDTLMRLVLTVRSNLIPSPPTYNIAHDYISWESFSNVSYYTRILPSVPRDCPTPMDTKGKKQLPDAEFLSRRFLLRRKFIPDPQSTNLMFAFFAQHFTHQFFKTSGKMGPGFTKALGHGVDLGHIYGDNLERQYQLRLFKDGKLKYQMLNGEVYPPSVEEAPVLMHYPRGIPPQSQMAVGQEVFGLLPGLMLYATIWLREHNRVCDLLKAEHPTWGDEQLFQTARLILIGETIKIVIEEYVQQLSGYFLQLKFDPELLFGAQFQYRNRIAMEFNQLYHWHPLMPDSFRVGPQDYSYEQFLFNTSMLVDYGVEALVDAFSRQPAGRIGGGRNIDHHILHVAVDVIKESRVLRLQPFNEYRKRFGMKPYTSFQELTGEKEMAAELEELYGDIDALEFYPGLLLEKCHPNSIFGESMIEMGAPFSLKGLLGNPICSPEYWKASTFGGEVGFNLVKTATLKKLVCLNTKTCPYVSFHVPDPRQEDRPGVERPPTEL
measuredProperty: pIC50
Please express pIC50 as -log10 of the molar concentration.

Task: # assay system COX-1 (Ovis aries): give pIC50 of Cc1nn(-c2ccccc2)c(Cl)c1C=NN=C1C(=O)Nc2ccccc21 [SB]
Result: 4.57

====

assayInfo: MTT cytotoxicity, BJ-1
runParameters: human, BJ-1 normal fibroblast cells
measuredProperty: viability at 48 h, 12.5 μg/mL (%)
# number only, unit % dropped from output

Task: Please report viability at 48 h, 12.5 μg/mL for the following compound: COc1cccc2c1C(=O)c1c(O)c3c(c(O)c1C2=O)C[C@@](O)(C(=O)CO)C[C@@H]3O[C@H]1C[C@H](N)[C@H](O)[C@H](C)O1 [Doxorubicin, reference compound]
Result: 68

====

assayInfo: MTT cytotoxicity, BJ-1
runParameters: human, BJ-1 normal fibroblast cells
measuredProperty: viability at 48 h, 25 μg/mL (%)
Report only the number, with the unit % understood.

Task: Identify measured viability at 48 h, 25 μg/mL corresponding to COc1cccc2c1C(=O)c1c(O)c3c(c(O)c1C2=O)C[C@@](O)(C(=O)CO)C[C@@H]3O[C@H]1C[C@H](N)[C@H](O)[C@H](C)O1 [Doxorubicin, reference compound]
Result: 42.3

====

measuredOn: 5-LOX enzyme (human recombinant) (Homo sapiens)
Sequence (P09917 whole entry): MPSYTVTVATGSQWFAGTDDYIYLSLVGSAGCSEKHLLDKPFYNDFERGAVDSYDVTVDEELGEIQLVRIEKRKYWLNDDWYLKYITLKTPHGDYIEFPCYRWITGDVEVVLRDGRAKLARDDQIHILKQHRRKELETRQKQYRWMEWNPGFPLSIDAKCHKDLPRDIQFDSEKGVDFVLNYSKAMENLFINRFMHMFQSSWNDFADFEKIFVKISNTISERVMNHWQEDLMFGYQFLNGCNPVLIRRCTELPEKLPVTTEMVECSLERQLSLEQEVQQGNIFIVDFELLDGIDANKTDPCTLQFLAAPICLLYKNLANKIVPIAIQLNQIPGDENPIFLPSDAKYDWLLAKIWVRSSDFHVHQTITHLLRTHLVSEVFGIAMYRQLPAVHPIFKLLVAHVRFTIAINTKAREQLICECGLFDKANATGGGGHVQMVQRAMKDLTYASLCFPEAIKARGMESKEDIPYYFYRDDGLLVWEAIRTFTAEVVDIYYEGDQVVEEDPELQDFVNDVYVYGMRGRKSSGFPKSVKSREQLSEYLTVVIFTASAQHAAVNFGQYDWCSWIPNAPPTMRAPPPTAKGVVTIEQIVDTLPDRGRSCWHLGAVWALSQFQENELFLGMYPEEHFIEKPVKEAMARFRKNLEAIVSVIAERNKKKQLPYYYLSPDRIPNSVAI
assayInfo: 5-Lipoxygenase inhibition assay
runParameters: mean ± SE, n = 3
measuredProperty: pIC50
In textbook form, pIC50 equals minus log to base ten of the concentration in mol/L.

Task: Tell me its pIC50 given Cc1nn(-c2ccccc2)c(Cl)c1C=NN=C1C(=O)Nc2ccccc21 [SB] as the entry.
Result: 4.44

====

measuredOn: COX-2 (Homo sapiens, UniProt P35354)
Sequence (P35354 18-604): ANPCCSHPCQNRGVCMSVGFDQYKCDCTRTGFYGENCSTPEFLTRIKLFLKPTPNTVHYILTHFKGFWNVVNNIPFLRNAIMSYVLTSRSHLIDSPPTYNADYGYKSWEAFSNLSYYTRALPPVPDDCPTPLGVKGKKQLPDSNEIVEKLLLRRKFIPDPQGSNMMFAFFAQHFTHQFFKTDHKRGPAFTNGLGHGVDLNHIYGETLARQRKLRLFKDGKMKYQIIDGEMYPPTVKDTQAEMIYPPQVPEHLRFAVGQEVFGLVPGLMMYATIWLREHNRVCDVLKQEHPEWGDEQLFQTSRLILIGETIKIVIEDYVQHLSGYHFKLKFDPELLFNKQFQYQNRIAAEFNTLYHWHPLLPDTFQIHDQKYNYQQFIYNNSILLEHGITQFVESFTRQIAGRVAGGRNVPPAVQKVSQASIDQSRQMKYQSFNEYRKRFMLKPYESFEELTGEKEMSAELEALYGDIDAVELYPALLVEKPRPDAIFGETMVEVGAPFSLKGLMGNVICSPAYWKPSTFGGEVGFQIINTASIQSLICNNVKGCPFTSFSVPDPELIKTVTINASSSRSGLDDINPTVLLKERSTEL
measuredProperty: pIC50
Conceptually, pIC50 converts a concentration in mol/L into minus its log10.

Task: State pIC50 (COX-2 (Homo sapiens, UniProt P35354)) of Cc1nn(-c2ccccc2)c(Cl)c1C=NN=C1C(=O)Nc2ccccc21 .
Result: 4.71
